B1: CPEB3 Ribozyme (parent)
chain: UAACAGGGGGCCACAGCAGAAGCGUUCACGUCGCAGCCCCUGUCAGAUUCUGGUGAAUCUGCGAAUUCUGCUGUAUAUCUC

# Variants of: B1
# Assay overview: self-cleavage, relative activity (ratio to wild type); higher = more cleavage; in vitro, sequencing
Where self-cleavage equals or exceeds 0.4, the correct label is Met; where it does not, the label is Not met.

Recorded results for 3 variants are shown here.
* U26A C40U | Met
* C68A G73U | Met
* C23A U51C | Not met

Does the reported self-cleavage for U41G C44A fall at or above the 0.4 mark? Not met

Does the reported self-cleavage for U1C G8A fall at or above the 0.4 mark? Not met

Does the reported self-cleavage for A35U G55U fall at or above the 0.4 mark? Met

Does the reported self-cleavage for A3G C40U fall at or above the 0.4 mark? Met
